- target: Protein Wnt-3a (Mus musculus, UniProt P27467)
- Sequence (P27467 whole entry): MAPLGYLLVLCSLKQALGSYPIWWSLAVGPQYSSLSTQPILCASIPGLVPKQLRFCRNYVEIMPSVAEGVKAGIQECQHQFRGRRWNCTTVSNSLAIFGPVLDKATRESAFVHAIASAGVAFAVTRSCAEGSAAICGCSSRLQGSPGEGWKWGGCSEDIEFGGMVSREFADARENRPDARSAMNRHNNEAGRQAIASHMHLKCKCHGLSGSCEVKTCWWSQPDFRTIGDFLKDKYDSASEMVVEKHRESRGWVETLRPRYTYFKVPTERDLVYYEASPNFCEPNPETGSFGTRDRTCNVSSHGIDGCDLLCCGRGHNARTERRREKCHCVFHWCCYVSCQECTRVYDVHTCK
- protocol: Wnt3a-driven reporter signaling inhibition, dose response, selectivity assay for Gli-SUFU antagonist project, Wnt-LIGHT cells, luminescence (AID 651570);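 note: Wnt-LIGHT reporter cells stimulated with conditioned medium from Wnt3a-producing cells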
- Type: functional
- measurement_setup: read-out: IC50_Mean
Active and inactive are the calls of the source.
Outcome codes: 1 = active, 0 = inactive

| compound | target | group_label |
| --- | --- | --- |
| CNS(=O)(=O)c1cccc(C(=O)OCC(=O)c2cc(C)n(CC3CCCO3)c2C)c1 (centres undefined) | Protein Wnt-3a (Mus musculus, UniProt P27467) | 0 |
| Cc1cc(C)c(C)c(S(=O)(=O)N2CCN(c3ncnc4ccccc34)CC2)c1C | Protein Wnt-3a (Mus musculus, UniProt P27467) | 1 |
| Cc1ncoc1C(=O)NC1CCCc2c1cnn2-c1ccc(C(C)(C)C)cc1 (centres undefined) | Protein Wnt-3a (Mus musculus, UniProt P27467) | 1 |
| CCCCCCC[N+](CC)(CC)CCCCc1ccc(Cl)cc1 | Protein Wnt-3a (Mus musculus, UniProt P27467) | 1 |

---

- target: Sentrin-specific protease 7 (Homo sapiens);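 note: Luminescence-based dose-response confirmation of ultra-high-throughput screening hits, measuring inhibition of SENP7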
- Sequence (Q9BQF6 whole entry): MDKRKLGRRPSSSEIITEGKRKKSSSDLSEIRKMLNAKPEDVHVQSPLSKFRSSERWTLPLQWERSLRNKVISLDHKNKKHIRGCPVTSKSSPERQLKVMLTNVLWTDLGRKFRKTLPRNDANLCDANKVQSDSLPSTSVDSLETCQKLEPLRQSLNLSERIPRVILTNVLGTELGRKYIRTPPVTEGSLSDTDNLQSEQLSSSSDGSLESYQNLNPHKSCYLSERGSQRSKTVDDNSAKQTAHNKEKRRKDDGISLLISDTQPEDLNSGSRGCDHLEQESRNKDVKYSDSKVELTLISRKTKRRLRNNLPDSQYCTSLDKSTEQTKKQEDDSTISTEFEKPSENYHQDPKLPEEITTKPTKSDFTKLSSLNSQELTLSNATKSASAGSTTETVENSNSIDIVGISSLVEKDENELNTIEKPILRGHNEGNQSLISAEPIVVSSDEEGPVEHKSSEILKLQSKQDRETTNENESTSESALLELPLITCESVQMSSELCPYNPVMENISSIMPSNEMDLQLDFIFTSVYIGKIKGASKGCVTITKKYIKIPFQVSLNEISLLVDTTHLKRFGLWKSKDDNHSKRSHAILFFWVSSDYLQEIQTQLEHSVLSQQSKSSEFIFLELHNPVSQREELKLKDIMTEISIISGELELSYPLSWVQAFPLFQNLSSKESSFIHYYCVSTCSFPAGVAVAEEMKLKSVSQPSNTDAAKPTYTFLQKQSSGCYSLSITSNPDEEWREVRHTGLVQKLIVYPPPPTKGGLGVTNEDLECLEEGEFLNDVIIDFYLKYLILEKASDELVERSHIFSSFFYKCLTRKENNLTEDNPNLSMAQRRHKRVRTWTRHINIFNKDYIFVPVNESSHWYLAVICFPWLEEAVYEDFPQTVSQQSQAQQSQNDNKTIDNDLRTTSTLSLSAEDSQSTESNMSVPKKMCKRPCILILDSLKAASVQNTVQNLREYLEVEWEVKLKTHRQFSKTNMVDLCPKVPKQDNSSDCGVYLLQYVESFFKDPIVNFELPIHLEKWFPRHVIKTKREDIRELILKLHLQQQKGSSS
- Format: functional
Active and inactive are the calls of the source.
Recorded IC50 for the following compounds
metric_name: IC50

| compound_structure_string | metric_name | value_reported |
| --- | --- | --- |
| Cc1cccc(NCc2nc3ccccc3n2Cc2ccccc2)c1 | IC50 | 12.7 µM (active) |
| CCCOC(=O)c1ccc(NC(=O)/C=C/c2cccs2)cc1 | IC50 | 12.9 µM (active) |
| CCOC(=O)c1cc2ccc3ccccc3c2s1 | IC50 | 10.5 µM (active) |
| Cc1ccc(Nc2ncnc3c2oc2ccccc23)cc1 | IC50 | 5.1 µM (active) |
| CCN(CC)c1ccc(/C=N/NC(=O)c2ccoc2C)c(O)c1 | IC50 | 0.757 µM (active) |

---

- target: Luciferin 4-monooxygenase (Photinus pyralis)
- Sequence (P08659 whole entry): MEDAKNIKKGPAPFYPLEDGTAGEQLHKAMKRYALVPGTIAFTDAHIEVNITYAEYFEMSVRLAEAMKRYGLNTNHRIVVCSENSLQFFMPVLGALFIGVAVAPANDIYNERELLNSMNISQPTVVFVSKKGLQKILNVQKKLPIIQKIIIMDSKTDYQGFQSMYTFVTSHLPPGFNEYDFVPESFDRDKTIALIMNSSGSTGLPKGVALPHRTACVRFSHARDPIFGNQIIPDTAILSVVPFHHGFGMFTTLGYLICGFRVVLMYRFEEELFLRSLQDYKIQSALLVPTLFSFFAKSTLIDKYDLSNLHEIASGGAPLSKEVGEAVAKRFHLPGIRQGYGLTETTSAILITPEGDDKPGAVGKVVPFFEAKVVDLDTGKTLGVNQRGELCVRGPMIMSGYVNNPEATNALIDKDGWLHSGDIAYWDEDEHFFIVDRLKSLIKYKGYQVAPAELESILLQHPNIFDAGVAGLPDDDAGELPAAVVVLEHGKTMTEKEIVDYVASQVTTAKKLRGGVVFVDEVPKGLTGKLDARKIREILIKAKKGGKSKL
- protocol: firefly luciferase enzyme inhibitors, dose response, biochemical, luminescence (AID 1891)
The source made the active and inactive calls.

| compound | EC50 |
| --- | --- |
| CCOC(=O)C1=NN(C(=O)Nc2ccc(OC)cc2)C2C(=O)N(c3cccc(C(F)(F)F)c3)C(=O)C12 (stereo unspecified) | > 112 µM (not active) |
| Cc1cccc(C)c1OCc1cc(C(=O)N2CCC(c3ccncc3)CC2)no1 | > 112 µM (not active) |
| COc1cc(NC(=S)N2CCN(C/C=C/c3ccccc3)CC2)cc(OC)c1 | > 112 µM (not active) |
| COCCNC(=O)c1cn(Cc2c(F)cccc2Cl)nn1 | > 112 µM (not active) |
| CCN(CC)c1ccc(/C=N/NC(=O)c2ccoc2C)c(O)c1 | 0.785 µM (active) |
| Cc1cc(S(=O)(=O)ON2C(=O)c3ccccc3C2=O)ccc1F | > 112 µM (not active) |
| c1ccc2[nH]c(-c3nc4ccccc4[nH]3)nc2c1 | 2.11 µM (active) |
| CC1CC(OC(=O)CN2CCCCC2)CC(C)(C)C1 (stereo unspecified) | > 112 µM (not active) |
| Cc1ccc(C(=O)O/N=C(\N)c2ccccn2)cc1 | 0.994 µM (active) |
| COc1cc(C2c3c(-c4cc(Cl)c(C)cc4O)n[nH]c3C(=O)N2Cc2cccnc2)ccc1O (stereo unspecified) | > 112 µM (not active) |
| Cc1cc(NC(=O)Cn2nc(C)c([N+](=O)[O-])c2C)no1 | > 112 µM (not active) |

---

- protocol: Luminescence Cell-Based Dose Confirmation HTS to Identify Activators of 5'UTR Stem-Loop Driven Alpha-Synuclein mRNA Translation in H4 Neuroglioblastoma Cells. [Related pubchem assays: 1829 (Project Summary), 1814 (Primary HTS)]
- Format: functional
The source made the active and inactive calls.
metric_name: EC50

| compound_structure_string | value_reported |
| --- | --- |
| O=C(Nc1c(C(=O)Nc2ccc3c(c2)OCCO3)cnn1-c1ccccc1Cl)c1ccco1 | 20 µM (active) |
| O=C(Nc1nnc(C2CCCCC2)s1)c1ccc(Br)s1 | 11.6 µM (active) |
| CN(C(=O)c1ccc(OC2CCN(CCc3ccccc3)CC2)cc1)C1CCCCC1 | 13.3 µM (active) |
| Cc1ccc(-c2nc(N3CCOCC3)s[n+]2-c2ccccc2)cc1.[O-][Cl+3]([O-])([O-])[O-] | 7.82 µM (active) |

---

- Test system: BJ
- protocol: cytotoxicity toward BJ-TERT-LT-ST fibroblasts, dose response, cell-based, RAS-independent, luminescence (AID 1935);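 note: BJ fibroblasts immortalized with TERT plus LT and ST oncogenes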
- Format: functional
- measurement_setup: Homo sapiens
Calls of active or inactive are those of the source.
Listed here: items and their measured EC50.
metric_name: EC50

| compound_structure_string | value_reported |
| --- | --- |
| CCN(CC)c1ccc(/C=N/NC(=O)c2ccoc2C)c(O)c1 | 15.6 µM (active) |
| CCN1/C(=C/C(C)=C/c2sc3ccccc3[n+]2CC)Sc2ccccc21 | 5.48 µM (inconclusive) |
| Cc1cccc(NC(=O)/C=C/c2ccc([N+](=O)[O-])s2)c1 | 4.67 µM (inconclusive) |
| COc1ccc(N2C(C)=CC(=Cc3sc4ccccc4[n+]3C)C=C2C)cc1 | 4 µM (inconclusive) |

---

- target: Paired box protein Pax-8 (Homo sapiens)
- Sequence (Q06710 whole entry): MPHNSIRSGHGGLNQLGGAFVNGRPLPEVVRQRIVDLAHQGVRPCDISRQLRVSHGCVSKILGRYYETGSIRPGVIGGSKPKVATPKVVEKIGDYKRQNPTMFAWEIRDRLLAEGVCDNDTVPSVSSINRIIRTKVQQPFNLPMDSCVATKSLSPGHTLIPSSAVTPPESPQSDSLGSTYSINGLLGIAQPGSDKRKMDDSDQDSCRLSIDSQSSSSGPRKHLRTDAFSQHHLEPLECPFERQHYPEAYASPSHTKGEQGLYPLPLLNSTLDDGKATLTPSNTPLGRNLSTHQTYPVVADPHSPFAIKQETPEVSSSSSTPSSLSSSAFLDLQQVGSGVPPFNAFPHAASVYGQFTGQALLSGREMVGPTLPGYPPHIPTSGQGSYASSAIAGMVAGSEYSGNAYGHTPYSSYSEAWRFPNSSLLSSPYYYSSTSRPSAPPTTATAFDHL
- protocol: inhibitors of PAX8-driven TPO luciferase reporter, dose response, RMG-I cells, cherry-pick (AID 687027);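 note: luciferase reporter driven by Pax8 target thyroperoxidase promoter measured by SteadyGlo luminescence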
- Assay type: functional, cell-based
Calls of active or inactive are those of the source.

| molecule | AC50 |
| --- | --- |
| Cc1cc(Sc2nnc(N)s2)c2ccccc2n1 | 4.58 µM (active) |
| CC(C)OCCCNC(=O)c1cccc(NC(=O)c2ccccc2)c1 | 41.6 µM (active) |
| C[C@@H]1CN([C@H](C)CO)C(=O)c2cc(NC(=O)Nc3ccc(C(F)(F)F)cc3)ccc2O[C@@H](C)CCCCO[C@H]1CN(C)Cc1ccc2c(c1)OCO2 | 7.63 µM (active) |
| CSCCC(c1nnnn1-c1ccc2c(c1)OCCO2)N1CCC(n2c(O)nc3ccccc32)CC1 (centres undefined) | 2.14 µM (active) |
| O=C(c1ccco1)N1N=C(c2ccc(Br)cc2)CC1(O)C(F)(F)F (centres undefined) | 27.1 µM (active) |
| CNC[C@@H]1Oc2cc(C#CC3CCCCC3)ccc2S(=O)(=O)N([C@@H](C)CO)C[C@@H]1C | 25.3 µM (active) |
| C[C@@H]1CCCCO[C@H](CN(C)CC2CCCCC2)[C@H](C)CN([C@H](C)CO)C(=O)c2cc(NS(=O)(=O)c3ccc(Cl)cc3)ccc2O1 | 5.21 µM (active) |
| COc1cccc(S(=O)(=O)N2CC[C@@H]3[C@@H](CO)Nc4ccc(-c5ccccc5OC)cc4[C@@H]32)c1 | 10.6 µM (active) |
| CCS(=O)(=O)c1ncc(Cl)c(C(=O)Nc2ccc(C)cc2)n1 | 17.2 µM (active) |

---

- target: UniProtKB Q9H0H5
- Sequence (Q9H0H5 whole entry): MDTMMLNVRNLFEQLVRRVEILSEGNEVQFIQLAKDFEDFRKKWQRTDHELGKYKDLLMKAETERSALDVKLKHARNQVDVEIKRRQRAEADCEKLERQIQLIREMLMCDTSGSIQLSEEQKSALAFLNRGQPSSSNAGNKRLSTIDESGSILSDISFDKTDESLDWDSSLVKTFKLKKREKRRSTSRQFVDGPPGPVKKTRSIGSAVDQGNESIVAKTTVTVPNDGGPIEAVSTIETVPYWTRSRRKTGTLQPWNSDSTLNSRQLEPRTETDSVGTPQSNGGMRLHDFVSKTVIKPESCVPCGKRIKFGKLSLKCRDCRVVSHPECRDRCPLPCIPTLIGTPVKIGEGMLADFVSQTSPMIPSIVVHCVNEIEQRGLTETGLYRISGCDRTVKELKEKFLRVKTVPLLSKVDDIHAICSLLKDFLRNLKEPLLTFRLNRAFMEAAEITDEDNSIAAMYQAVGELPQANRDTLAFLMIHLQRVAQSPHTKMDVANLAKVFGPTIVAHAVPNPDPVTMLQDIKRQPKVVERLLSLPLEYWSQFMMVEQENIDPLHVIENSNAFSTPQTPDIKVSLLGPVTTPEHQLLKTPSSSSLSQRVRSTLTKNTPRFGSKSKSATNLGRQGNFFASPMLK
- protocol: MgcRacGAP GTPase-activating activity inhibitors, confirmation, biochemical, ADP Hunter fluorescence, primary and confirmatory (AID 624330)
- Format: functional
Activity calls are given as the source filed them.
metric_name: IC50

| compound | value_reported |
| --- | --- |
| CC(C)CN(Cc1c(O)ccc2ccccc12)CC(C)C | 47.5 µM (active) |
| Cc1nc(Cl)cc(N/N=C/c2ccc(O)cc2O)n1 | 16.6 µM (active) |
| O=C(N/N=C/c1ccc(O)cc1)Nc1cccc2nsnc12 | 63.5 µM (active) |
| CC(=O)Nc1cccc2cc(O)ccc12 | 36.8 µM (active) |
| COc1ccc(NCc2cc(O)nc3ccccc23)cc1 | 50.5 µM (active) |
| CCN(CC)c1ccc(NC(=O)c2ccc(S(=O)(=O)N3CCOCC3)cc2)cc1 | 71.9 µM (active) |
| CCCCNCC#CCOc1cc(C)ccc1C(C)C | 196 µM (active) |
| CN1CCc2c1nc1ccccc1c2NC(=O)CN1CCCC1 | 117 µM (active) |
| Nc1ccc(N2CCN(c3ccccc3)CC2)c(F)c1 | 46.6 µM (active) |
| CCC(CC)NCc1ccc2c(c1)c1ccccc1n2CC | 133 µM (active) |
| Clc1ccccc1-c1nc(/C=N/N2CCOCC2)c2ccccn12 | 33.6 µM (active) |
| CN(C)CCNc1ccc2ncn3c4ccc(O)cc4c(=O)c1c23 | 46.8 µM (active) |
| COc1ccc(NCC(O)Cn2c(C)c(C)c3ccccc32)cc1 (stereo not drawn) | 70.7 µM (active) |

---

- target: Dual specificity protein phosphatase 3 (Homo sapiens)
- Sequence (P51452 whole entry): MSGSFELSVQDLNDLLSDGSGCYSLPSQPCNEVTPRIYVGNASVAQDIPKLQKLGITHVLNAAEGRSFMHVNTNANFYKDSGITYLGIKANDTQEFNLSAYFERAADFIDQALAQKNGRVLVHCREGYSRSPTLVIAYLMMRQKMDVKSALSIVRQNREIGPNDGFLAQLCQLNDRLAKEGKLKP
- protocol: VHR phosphatase inhibition, dose response, selectivity assay for STEP inhibitor project, biochemical (AID 602374)
- Type: functional
- measurement_setup: read-out: IC50_Mean
Active and inactive are the calls of the source.

| molecule | IC50 |
| --- | --- |
| Cc1sc2nc(CSC(C)C(=O)Nc3ccc(Cl)cn3)nc(O)c2c1C (centres undefined) | 927 nM (active) |
| COc1cccc(Nc2nn3c(=O)c4ccccc4nc3s2)c1 | 6620 nM (active) |
| O=Cc1cn(-c2ccccc2)nc1-c1cc2cc(O)ccc2oc1=O | 3020 nM (active) |
| COc1ccc(OC)c(N2C(=O)[C@@H]3C(c4ccccc4Cl)=NO[C@@H]3C2=O)c1 | 833 nM (active) |
